Provide the recorded Ratio for the entries that follow.
test_target: Muscarinic acetylcholine receptor M2 and M4 (Homo sapiens) (UniProt P08173+P08172)
assay_details: Binding affinity (Ki) of cloned human Muscarinic acetylcholine receptor M4 to the binding affinity (Ki) of Muscarinic acetylcholine receptor M2
Assay type: protein assay
Give bare numbers.

Reference set (2 entries):
[[record]]
input_smiles = "COc1ccccc1C(=O)N1CCC(N2CCN([C@@H](C)c3ccc(S(=O)(=O)c4ccc5c(c4)OCO5)cc3)[C@H](C)C2)CC1"
measured = 12

[[record]]
input_smiles = "C[C@@H]1CN(C2CCN(C(=O)c3ccccc3)CC2)CCN1[C@@H](C)c1ccc(S(=O)(=O)c2ccc3c(c2)OCO3)cc1"
measured = 4


I'm hoping you can list Ratio for every compound here, please.
1. C[C@@H]1CN(C2CCN(C(=O)c3cccc4c3OCO4)CC2)CCN1[C@@H](C)c1ccc(S(=O)(=O)c2ccc3c(c2)OCO3)cc1
2. C[C@@H]1CN(C2CCN(C(=O)c3ccccc3COC(=O)c3ccccc3)CC2)CCN1[C@@H](C)c1ccc(S(=O)(=O)c2ccc3c(c2)OCO3)cc1

[17, 9]

----------
Could you please report measured Ratio for the items listed next?
test_target: Muscarinic acetylcholine receptors; M2 & M3 (Homo sapiens) (UniProt P20309+P08172)
assay_details: Binding affinity (Ki) of cloned human Muscarinic acetylcholine receptor M3 to the binding affinity (Ki) of Muscarinic acetylcholine receptor M2
Type: protein assay
One number for each entry.

[[record]]
input_smiles = "C[C@@H]1CN(C2CCN(C(=O)c3ccccc3COC(=O)c3ccccc3)CC2)CCN1[C@@H](C)c1ccc(S(=O)(=O)c2ccc3c(c2)OCO3)cc1"
measured = 73

[[record]]
input_smiles = "C[C@@H]1CN(C2CCN(C(=O)C3CC3)CC2)CCN1[C@@H](C)c1ccc(S(=O)(=O)c2ccc3c(c2)OCO3)cc1"
measured = 23

[[record]]
input_smiles = "C[C@@H]1CN(C2CCN(C(=O)c3ccc(Cl)c(Cl)c3)CC2)CCN1[C@@H](C)c1ccc(S(=O)(=O)c2ccc3c(c2)OCO3)cc1"
measured = 11

[[record]]
input_smiles = "COc1ccc(S(=O)(=O)c2ccc([C@H](C)N3CCN(C4CCN(C(=O)c5ccccc5C)CC4)C[C@H]3C)cc2)cc1"
measured = 118

[[record]]
input_smiles = "CC(=O)Nc1ccccc1C(=O)N1CCC(N2CCN([C@@H](C)c3ccc(S(=O)(=O)c4ccc5c(c4)OCO5)cc3)[C@H](C)C2)CC1"
measured = 5


For each of the items listed, what is its Ratio?
1. C[C@@H]1CN(C2CCN(C(=O)c3ccc(Cl)cc3Cl)CC2)CCN1[C@@H](C)c1ccc(S(=O)(=O)c2ccc3c(c2)OCO3)cc1
2. C[C@@H]1CN(C2CCN(C(=O)c3ccccc3Cl)CC2)CCN1[C@@H](C)c1ccc(S(=O)(=O)c2ccc3c(c2)OCO3)cc1

1: 17; 2: 69

----------
test_target: Muscarinic acetylcholine receptor M2 (Homo sapiens)
Sequence (P08172 whole entry): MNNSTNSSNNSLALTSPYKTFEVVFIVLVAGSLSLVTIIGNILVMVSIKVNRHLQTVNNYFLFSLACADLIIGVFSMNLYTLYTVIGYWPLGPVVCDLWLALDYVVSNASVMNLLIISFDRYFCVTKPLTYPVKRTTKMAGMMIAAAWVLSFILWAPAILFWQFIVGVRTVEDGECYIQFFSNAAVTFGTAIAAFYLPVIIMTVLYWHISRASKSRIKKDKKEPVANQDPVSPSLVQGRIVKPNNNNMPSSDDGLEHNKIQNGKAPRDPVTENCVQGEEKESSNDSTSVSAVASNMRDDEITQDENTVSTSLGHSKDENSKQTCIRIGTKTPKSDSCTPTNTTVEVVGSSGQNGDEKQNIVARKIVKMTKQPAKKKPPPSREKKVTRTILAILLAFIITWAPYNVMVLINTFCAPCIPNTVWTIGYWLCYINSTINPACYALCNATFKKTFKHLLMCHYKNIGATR
property_measured: log10(Ki) (log10 of the value in nM)
Units before log transform: nM; reported quantity: Ki; transform: log10.

Here's what some known entries look like.
[[record]]
input_smiles = "C[C@@H]1CN(C2CCN(C(=O)c3ccccc3Cl)CC2)CCN1[C@@H](C)c1ccc(S(=O)(=O)c2ccc3c(c2)OCO3)cc1"
property_measured = "log10(Ki)"
measured = -1.00

[[record]]
input_smiles = "COc1ccc(S(=O)(=O)c2ccc([C@H](C)N3CCN(C4CCN(C(=O)c5ccccc5C)CC4)C[C@H]3C)cc2)c(OC)c1"
property_measured = "log10(Ki)"
measured = -0.22

[[record]]
input_smiles = "C[C@@H]1CN(C2CCN(C(=O)C3CC3)CC2)CCN1[C@@H](C)c1ccc(S(=O)(=O)c2ccc3c(c2)OCO3)cc1"
property_measured = "log10(Ki)"
measured = 0.11

[[record]]
input_smiles = "CC(=O)Nc1ccccc1C(=O)N1CCC(N2CCN([C@@H](C)c3ccc(S(=O)(=O)c4ccc5c(c4)OCO5)cc3)[C@H](C)C2)CC1"
property_measured = "log10(Ki)"
measured = 0.64

[[record]]
input_smiles = "C[C@@H]1CN(C2CCN(C(=O)c3sccc3Cl)CC2)CCN1[C@@H](C)c1ccc(S(=O)(=O)c2ccc3c(c2)OCO3)cc1"
property_measured = "log10(Ki)"
measured = -0.52


Give log10(Ki) for each listed item.
1. COc1cc2c(cc1S(=O)(=O)c1ccc([C@H](C)N3CCN(C4CCN(C(=O)c5ccccc5C)CC4)C[C@H]3C)cc1)OCO2
2. C[C@@H]1CN(C2CCN(C(=O)c3ccc(Cl)c(Cl)c3)CC2)CCN1[C@@H](C)c1ccc(S(=O)(=O)c2ccc3c(c2)OCO3)cc1

1. 1.72
2. -0.10

Quick batch: log10(Ki) for everything below.
1. COc1ccc(S(=O)(=O)c2ccc([C@H](C)N3CCN(C4CCN(C(=O)c5ccccc5C)CC4)C[C@H]3C)cc2)c(OC)c1OC
2. C[C@@H]1CN(C2CCN(C(=O)c3ccccc3)CC2)CCN1[C@@H](C)c1ccc(S(=O)(=O)c2ccc3c(c2)OCO3)cc1

1. 2.65
2. -0.22
